Readings of growth for the listed compounds
- Test system: SF-268 CNS
- Procedure Text: NCI-60 one-dose screen, 48 h (100 = growth as untreated, 0 = no growth, -100 = all killed)
- Reported Conditions: 10 µM unless noted
This is part of a sample that, as a whole, favours compounds with a hit. Of some 83,000 tested, about 20% had one in any assay.
Reply with just the number (in %).

Some solved cases for reference:
{"Compound": "CC12CCC(=O)C=C1CCC1C2CCC2(C)C(C(=O)COC(=O)Cc3ccc(N(CCCl)CCCl)cc3)CCC12 (stereo unspecified)", "System Name": "SF-268 CNS", "Unit Of Measure": "%", "growth": 77.9}
{"Compound": "Cc1cc([N+](=O)[O-])c(Cl)cc1NS(=O)(=O)c1ccccc1", "System Name": "SF-268 CNS", "Unit Of Measure": "%", "growth": 90.3}
{"Compound": "CC(C)(C)[Si](C)(C)OC1[C@@H](O[Si](C)(C)C(C)(C)C)[C@@H](CNC(=O)NC(=O)CF)O[C@H]1n1cnc2c(NC(=O)Nc3ccccc3)ncnc21 (stereo partly specified)", "System Name": "SF-268 CNS", "Unit Of Measure": "%", "growth": 26.6}
{"Compound": "N#Cc1ncc(/N=C/c2ccc(N(CCCl)CCCl)cc2)s1", "System Name": "SF-268 CNS", "Unit Of Measure": "%", "growth": 65.5}
{"Compound": "COc1cc(NCCCCCN=C(N)N)c2ncccc2c1", "System Name": "SF-268 CNS", "Unit Of Measure": "%", "growth": 3.28}

The compound listed as ClCCN(CCCl)c1nc(Cl)c(C2CC(c3ccc(Cl)cc3)=NN2c2cc(Cl)cc(Cl)c2)s1 (stereo unspecified) shows growth equal to 102

The compound listed as C#CC1(O)CCC2(C)C(CCC3C4CCC(=O)C4(C)CCC32)C1 (stereo unspecified) shows growth equal to 97.9

The compound listed as COc1ccc(NP2(=O)OCC(C)(N)CO2)cc1 (stereo unspecified) shows growth equal to 96.2

The compound listed as N#C[Se]CCCNS(=O)(=O)C1CC2C=CC1C2 (stereo unspecified) shows growth equal to -55.7

The compound listed as `CCC(C)(C)O` shows growth equal to 99.1

The compound listed as `COc1cc(N(CCCl)CCCl)ccc1C=Nc1ccccc1C(=O)O` shows growth equal to 103
